- procedure_details: clinical
- conditions: human, plasma, po, 400 mg
property_name: half-life (h)

In [3]: df
Out[3]:
                                   compound  unit_symbol  quantitative_readout
0  CN(C)C[C@H]1CN(CCc2ccsc2)CC[C@]1(O)c1cccc(C(N)=O)c1 [Compound I]            h                  32.1

###

- procedure_details: clinical
- conditions: human, plasma, oral, 20 mg
- Excerpt: The study comprised a single ascending dose (SAD), sequential cohort study, incorporating a food effect (FE) evaluation. Up to 40 subjects were to be studied in 5 cohorts (Cohorts A1 to A5), each cohort consisting of 8 subjects. […] The actual blood sampling dates and times relative to dosing time were listed by subject and nominal sampling time, with time deviation calculated, for all subjects with available plasma concentration data. […]
property_name: half-life (h)

>>> print(df.to_string())
                           smiles_structure  property_name  quantitative_readout
0  CN(C)C[C@H]1CN(CCc2ccsc2)CC[C@]1(O)c1cccc(C(N)=O)c1      half-life                  1.05
